- target: Human PD-L1/PD-1 (Homo sapiens, UniProt Q9NZQ7)
- Construct: TVMV protease cleavage site (C); made in house; host or cells: HEK293T cells
- Sequence (Q9NZQ7 with tags, fused parts or gaps): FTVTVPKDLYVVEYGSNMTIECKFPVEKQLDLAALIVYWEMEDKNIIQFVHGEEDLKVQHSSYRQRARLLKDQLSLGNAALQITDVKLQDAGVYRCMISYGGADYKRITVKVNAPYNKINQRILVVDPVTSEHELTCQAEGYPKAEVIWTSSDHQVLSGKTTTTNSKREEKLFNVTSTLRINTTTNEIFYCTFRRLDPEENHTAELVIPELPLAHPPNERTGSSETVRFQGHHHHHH
- testSummary: HTRF Human PD-L1/PD-1 binding assay (PD-1-Ig/PD-L1-His)
- condition: PD-L1-His 10 nM, PD-1-Ig 20 nM; class symbol; read-out: HTRF Human PD-L1/PD-1 Binding Assay IC50 Range
Where a SMILES comes first, the peptide text is derived from it. Bridges are numbered along the chain shown (N, C = ends). [ ]: non-standard residue; d: D form. Phe(3,4,5-F3) = N[C@@H](Cc1cc(F)c(F)c(F)c1)C(=O)O; NMeF = CN[C@@H](Cc1ccccc1)C(=O)O; NMeNle = CCCC[C@H](NC)C(=O)O; Sar = CNCC(=O)O
endpointName: IC50

Reported Human PD-L1/PD-1 (Homo sapiens, UniProt Q9NZQ7) IC50 for item CCCC[C@H]1C(=O)N2CCC[C@@H]2C(=O)N[C@@H](CC(=O)O)C(=O)N[C@@H](C)C(=O)N(C)[C@@H](Cc2ccccc2)C(=O)N[C@@H](Cc2ccc(O)cc2)C(=O)N(C)CC(=O)N[C@@H](Cc2c[nH]c3ccccc23)C(=O)N[C@@H](Cc2ccc(O)cc2)C(=O)N[C@@H](CC(C)C)C(=O)N[C@H](C(=O)NCC(N)=O)CSCC(=O)N[C@@H](Cc2cc(F)c(F)c(F)c2)C(=O)N(C)[C@@H](Cc2ccccc2)C(=O)N1C [Example 10053] ({CH2CO}-[Phe(3,4,5-F3)][NMeF][NMeNle][dP]DA[NMeF]Y[Sar]WYLCG-NH2; thioether N-13) was 10 to 99.9 nM

###

- target: Human PD-L1/PD-1 (Homo sapiens, UniProt Q9NZQ7)
- Construct: TVMV protease cleavage site (C); made in house; host or cells: HEK293T cells
- testSummary: HTRF Human PD-L1/PD-1 binding assay (PD-1-Ig/PD-L1-His)
- condition: PD-L1-His 10 nM, PD-1-Ig 20 nM; class symbol; read-out: HTRF Human PD-L1/PD-1 Binding Assay IC50 Range
pIC50: −log10 of the molar value. Where a SMILES comes first, the peptide text is derived from it. Bridges are numbered along the chain shown (N, C = ends). [ ]: non-standard residue; d: D form. Phe(4-F) = N[C@@H](Cc1ccc(F)cc1)C(=O)O; NMeF = CN[C@@H](Cc1ccccc1)C(=O)O; NMeL = CN[C@@H](CC(C)C)C(=O)O; NMeNle = CCCC[C@H](NC)C(=O)O; dPip = O=C(O)[C@H]1CCCCN1
endpointName: pIC50

Reported Human PD-L1/PD-1 (Homo sapiens, UniProt Q9NZQ7) pIC50 for item CCCC[C@H]1C(=O)N2CCC[C@@H]2C(=O)N[C@@H](CC(=O)O)C(=O)N[C@@H](C(C)C)C(=O)N(C)[C@@H](CC(C)C)C(=O)N[C@@H](Cc2ccc(O)cc2)C(=O)N2CCCC[C@@H]2C(=O)N[C@@H](Cc2c[nH]c3ccccc23)C(=O)N[C@@H](Cc2ccc(O)cc2)C(=O)N[C@@H](CC(C)C)C(=O)N[C@H](C(=O)NCC(N)=O)CSCC(=O)N[C@@H](Cc2ccc(F)cc2)C(=O)N(C)[C@@H](Cc2ccccc2)C(=O)N1C [Example 9250] ({CH2CO}-[Phe(4-F)][NMeF][NMeNle][dP]DV[NMeL]Y[dPip]WYLCG-NH2; thioether N-13) was 5.00 to 6.00

###

- target: Human PD-L1/PD-1 (Homo sapiens, UniProt Q9NZQ7)
- Construct: TVMV protease cleavage site (C); made in house; host or cells: HEK293T cells
- testSummary: HTRF Human PD-L1/PD-1 binding assay (PD-1-Ig/PD-L1-His)
- condition: PD-L1-His 10 nM, PD-1-Ig 20 nM; class symbol; read-out: HTRF Human PD-L1/PD-1 Binding Assay IC50 Range
Where a SMILES comes first, the peptide text is derived from it. Bridges are numbered along the chain shown (N, C = ends). [ ]: non-standard residue; d: D form. ξ: configuration not given here. NMeNle = CCCC[C@H](NC)C(=O)O; hSer = N[C@@H](CCO)C(=O)O; NMeA = CN[C@@H](C)C(=O)O; ξC = NC(CS)C(=O)O
endpointName: IC50

Notebook: CCCC[C@H]1C(=O)N[C@@H](CC(N)=O)C(=O)N2CCC[C@H]2C(=O)N[C@@H](CO)C(=O)N[C@@H](CCO)C(=O)N2CCC[C@H]2C(=O)N[C@@H](Cc2c[nH]c3ccccc23)C(=O)N[C@@H](CCO)C(=O)N[C@@H](Cc2c[nH]c3ccccc23)C(=O)N(C)[C@@H](C)C(=O)N(C)[C@@H](C)C(=O)N[C@@H](CCC(=O)O)C(=O)NC(C(=O)NCC(N)=O)CSCC(=O)N[C@@H](Cc2ccc(O)cc2)C(=O)N1C (some centres unmarked) [Example 10215] ({CH2CO}-Y[NMeNle]NPS[hSer]PW[hSer]W[NMeA][NMeA]E[ξC]G-NH2; thioether N-14) , IC50 read as 1 to 10 µM

Notebook: CCCC[C@H]1C(=O)N[C@@H](CC(N)=O)C(=O)N2CCC[C@H]2C(=O)N[C@@H](CO)C(=O)N[C@@H](CCO)C(=O)N2CCC[C@H]2C(=O)N[C@@H](Cc2c[nH]c3ccccc23)C(=O)N[C@@H](CO)C(=O)N[C@@H](Cc2c[nH]c3ccccc23)C(=O)N(C)[C@@H](C)C(=O)N(C)[C@@H](C)C(=O)N[C@@H](CCCCN)C(=O)NC(C(=O)NCC(N)=O)CSCC(=O)N[C@@H](Cc2ccc(O)cc2)C(=O)N1C (some centres unmarked) [Example 10208] ({CH2CO}-Y[NMeNle]NPS[hSer]PWSW[NMeA][NMeA]K[ξC]G-NH2; thioether N-14) , IC50 read as 1 to 10 µM

###

- target: Human PD-L1/PD-1 (Homo sapiens, UniProt Q9NZQ7)
- Construct: TVMV protease cleavage site (C); made in house; host or cells: HEK293T cells
- testSummary: HTRF Human PD-L1/PD-1 binding assay (PD-1-Ig/PD-L1-His)
- condition: PD-L1-His 10 nM, PD-1-Ig 20 nM; class symbol; read-out: HTRF Human PD-L1/PD-1 Binding Assay IC50 Range
Where a SMILES comes first, the peptide text is derived from it. Bridges are numbered along the chain shown (N, C = ends). [ ]: non-standard residue; d: D form. ξ: configuration not given here. Bta = N[C@@H](Cc1csc2ccccc12)C(=O)O; NMeNle = CCCC[C@H](NC)C(=O)O; NMeA = CN[C@@H](C)C(=O)O; ξC = NC(CS)C(=O)O
Record form. Attribute: IC50. Fill in for each entry.

Notebook: CCCC[C@H]1C(=O)N(C)CC(=O)N[C@@H](CC(=O)O)C(=O)N[C@@H](C(C)C)C(=O)N(C)[C@@H](Cc2ccccc2)C(=O)N[C@@H](Cc2ccc(O)cc2)C(=O)N(C)CC(=O)NC(C)(Cc2c[nH]c3ccccc23)C(=O)N[C@@H](Cc2ccc(O)cc2)C(=O)N[C@@H](CC(C)C)C(=O)N[C@H](C(=O)NCC(N)=O)CSCC(=O)N[C@@H](Cc2ccccc2)C(=O)N(C)[C@@H](Cc2ccccc2)C(=O)N1C (single isomer, unassigned) [Example 3640-A] , IC50 read as 100 to 990 nM

Notebook: CCCC[C@H]1C(=O)N(C)[C@@H](CCCC)C(=O)N[C@@H](CCCNC(=N)N)C(=O)NC(C(=O)NCC(N)=O)CSCC(=O)N[C@@H](Cc2ccc(O)cc2)C(=O)N(C)[C@@H](C)C(=O)N[C@@H](CC(N)=O)C(=O)N2CCC[C@H]2C(=O)N[C@@H](CC(N)=O)C(=O)N[C@@H](CC(N)=O)C(=O)N2CCC[C@H]2C(=O)N[C@@H](Cc2c[nH]c3ccccc23)C(=O)N[C@@H](CO)C(=O)N[C@@H](Cc2csc3ccccc23)C(=O)N1C (some centres unmarked) [Example 10042] ({CH2CO}-Y[NMeA]NPNNPWS[Bta][NMeNle][NMeNle]R[ξC]G-NH2; thioether N-14) , IC50 read as 10 to 99.9 nM
